Measured on: human thrombocytes
Protocol: Inhibition of binding of ^3 H-BIBU 52 to human thrombocytes (Fibrinogen-binding test)
Measurement context: ^3 H-BIBU 52 5 nM, human platelet-rich plasma 1:10 diluted, ambient temperature, 20 minutes
pIC50: −log10 of the molar value.
Measured attribute: pIC50

Some compounds with known pIC50 results, for comparison:
CC1(c2ccc(CCC(=O)O)cc2)C(=O)CN(c2ccc(C(=N)N)cc2)C1=O (stereo not drawn) [Example 13] : 6.44
N=C(N)c1ccc(N2CC(N3CCOCC3)=C(c3ccc(CCC(=O)O)cc3)C2=O)cc1 [2(3)] : 7.38
COC(=O)CCc1ccc(C2=C(OC)CN(c3ccc(CN)cc3)C2=O)cc1 [5(B)] : 5.07
COC1=C(c2ccc(CCC(=O)O)cc2)C(=O)N(c2ccc(C(=N)N)cc2)C1 [Example 2] : 7.96

(1) COC1=C(c2ccc(CCC(=O)O)cc2)C(=O)N(c2ccc(CN)cc2)C1 [2(55)]
(2) N=C(N)c1ccc(N2CCC(c3ccc(CCC(=O)O)cc3)C2=O)cc1 (stereo not drawn) [2(13)]
Two entries are listed, 1 and 2 . Which one carries the higher pIC50? Lab note: record the label of whichever item you select.
2
